System: HCC-78
PROTOCOL DESCRIPTION: relative viability (nuclei count vs DMSO), 5 days (fraction); higher = more cells survive
CONDITION SET: first compound 0.8 µM
I'd be grateful if you could share measured relative viability for these entries.
Answers are plain numbers.

Sample records with relative viability:
compound="O=c1cc(-c2cccc3c2Sc2ccccc2S3)oc(N2CCOCC2)c1 + C[C@]1(O)C[C@@H](c2nc(-c3ccc4ccc(-c5ccccc5)nc4c3)c3c(N)nccn32)C1 [Linsitinib] (partner 1 µM)" observed_value=0.41
compound="O=c1cc(-c2cccc3c2Sc2ccccc2S3)oc(N2CCOCC2)c1 + Nc1nc2[nH]cc(CCc3ccc(C(=O)N[C@@H](CCC(=O)O)C(=O)O)cc3)c2c(=O)[nH]1 [Pemetrexed] (partner 0.2 µM)" observed_value=0.946
compound="O=c1cc(-c2cccc3c2Sc2ccccc2S3)oc(N2CCOCC2)c1 + Nc1ncn([C@H]2C[C@H](O)[C@@H](CO)O2)c(=O)n1 [Decitabine] (partner 2 µM)" observed_value=0.647
compound="O=c1cc(-c2cccc3c2Sc2ccccc2S3)oc(N2CCOCC2)c1 + Cc1nc(Nc2ncc(C(=O)Nc3c(C)cccc3Cl)s2)cc(N2CCN(CCO)CC2)n1 [Dasatinib] (partner 0.075 µM)" observed_value=0.284

We next turn to a different compound, shown below.
Tell me the measured relative viability of COc1nc(C)cnc1NS(=O)(=O)c1cccnc1-c1ccc(-c2nnco2)cc1 [Zibotentan] + CC(C)C[C@H](NC(=O)[C@H](Cc1ccccc1)NC(=O)c1cnccn1)B(O)O [Bortezomib] (partner 0.002 µM) , please. 0.563

---

System: NCI-H3122
PROTOCOL DESCRIPTION: relative viability (nuclei count vs DMSO), 5 days (fraction); higher = more cells survive
CONDITION SET: first compound 1 µM
Each entry belongs to exactly one class, chosen by where its relative viability falls: A = under 0.4, B = from 0.4 up to 0.9, C = 0.9 and over

Please review the following examples before continuing.
compound="O=c1cc(N2CCOCC2)oc2c(-c3cccc4c3sc3ccccc34)cccc12 + Cc1cc(Nc2cc(N3CCN(C)CC3)nc(Sc3ccc(NC(=O)C4CC4)cc3)n2)n[nH]1 [Tozasertib] (partner 0.1 µM)" assigned_class=A
compound="O=c1cc(N2CCOCC2)oc2c(-c3cccc4c3sc3ccccc34)cccc12 + CS(=O)(=O)CCNCc1ccc(-c2ccc3ncnc(Nc4ccc(OCc5cccc(F)c5)c(Cl)c4)c3c2)o1 [Lapatinib] (partner 2 µM)" assigned_class=C
compound="CCN(CC)CCCCNc1ncc2cc(-c3cc(OC)cc(OC)c3)c(NC(=O)NC(C)(C)C)nc2n1 + CS(=O)(=O)CCNCc1ccc(-c2ccc3ncnc(Nc4ccc(OCc5cccc(F)c5)c(Cl)c4)c3c2)o1 [Lapatinib] (partner 2 µM)" assigned_class=C
compound="O=c1cc(N2CCOCC2)oc2c(-c3cccc4c3sc3ccccc34)cccc12 + C[C@]1(O)C[C@@H](c2nc(-c3ccc4ccc(-c5ccccc5)nc4c3)c3c(N)nccn32)C1 [Linsitinib] (partner 1 µM)" assigned_class=C
compound="CCN(CC)CCCCNc1ncc2cc(-c3cc(OC)cc(OC)c3)c(NC(=O)NC(C)(C)C)nc2n1 + CCNC(=O)c1noc(-c2cc(C(C)C)c(O)cc2O)c1-c1ccc(CN2CCOCC2)cc1 [Luminespib] (partner 0.01 µM)" assigned_class=A
compound="O=c1cc(N2CCOCC2)oc2c(-c3cccc4c3sc3ccccc34)cccc12 + COc1cc2c(Oc3ccc(NC(=O)C4(C(=O)Nc5ccc(F)cc5)CC4)cc3F)ccnc2cc1OCCCN1CCOCC1 [Foretinib] (partner 0.25 µM)" assigned_class=C
compound="CCN(CC)CCCCNc1ncc2cc(-c3cc(OC)cc(OC)c3)c(NC(=O)NC(C)(C)C)nc2n1 + NC(=O)Nc1cc(-c2cccc(F)c2)sc1C(=O)N[C@H]1CCCNC1 [AZD7762] (partner 0.2 µM)" assigned_class=C
compound="O=c1cc(N2CCOCC2)oc2c(-c3cccc4c3sc3ccccc34)cccc12 + Nc1nc2[nH]cc(CCc3ccc(C(=O)N[C@@H](CCC(=O)O)C(=O)O)cc3)c2c(=O)[nH]1 [Pemetrexed] (partner 0.2 µM)" assigned_class=A
compound="CCN(CC)CCCCNc1ncc2cc(-c3cc(OC)cc(OC)c3)c(NC(=O)NC(C)(C)C)nc2n1 + Cc1cc(Nc2cc(N3CCN(C)CC3)nc(Sc3ccc(NC(=O)C4CC4)cc3)n2)n[nH]1 [Tozasertib] (partner 0.1 µM)" assigned_class=A
compound="O=c1cc(N2CCOCC2)oc2c(-c3cccc4c3sc3ccccc34)cccc12 + CC(C)C[C@H](NC(=O)[C@H](Cc1ccccc1)NC(=O)c1cnccn1)B(O)O [Bortezomib] (partner 0.002 µM)" assigned_class=C

Given O=c1cc(N2CCOCC2)oc2c(-c3cccc4c3sc3ccccc34)cccc12 + Nc1ncn([C@H]2C[C@H](O)[C@@H](CO)O2)c(=O)n1 [Decitabine] (partner 2 µM) , name the class its relative viability places it in. A

Given O=c1cc(N2CCOCC2)oc2c(-c3cccc4c3sc3ccccc34)cccc12 + Cc1nc(NC(=O)N2CCC[C@H]2C(N)=O)sc1-c1ccnc(C(C)(C)C(F)(F)F)c1 [Alpelisib] (partner 2 µM) , name the class its relative viability places it in. B

---

I'd be grateful if you could share measured relative viability for these entries.
System: NCI-H441
PROTOCOL DESCRIPTION: relative viability (nuclei count vs DMSO), 5 days (fraction); higher = more cells survive
CONDITION SET: first compound 1 µM
Answers are plain numbers.

molecule="O=c1cc(N2CCOCC2)oc2c(-c3cccc4c3sc3ccccc34)cccc12 + O=C(c1cc(Cc2n[nH]c(=O)c3ccccc23)ccc1F)N1CCN(C(=O)C2CC2)CC1 [Olaparib] (partner 8 µM)" target_entity=NCI-H441 measurement_kind="relative viability" observed_value=0.585
molecule="CCN(CC)CCCCNc1ncc2cc(-c3cc(OC)cc(OC)c3)c(NC(=O)NC(C)(C)C)nc2n1 + NC(=O)Nc1cc(-c2cccc(F)c2)sc1C(=O)N[C@H]1CCCNC1 [AZD7762] (partner 0.2 µM)" target_entity=NCI-H441 measurement_kind="relative viability" observed_value=0.921
molecule="O=c1cc(N2CCOCC2)oc2c(-c3cccc4c3sc3ccccc34)cccc12 + CC(=O)Nc1cccc(-n2c(=O)n(C3CC3)c(=O)c3c(Nc4ccc(I)cc4F)n(C)c(=O)c(C)c32)c1 [Trametinib] (partner 0.02 µM)" target_entity=NCI-H441 measurement_kind="relative viability" observed_value=0.42

We next turn to a different molecule, shown below.
Tell me the measured relative viability of O=c1cc(N2CCOCC2)oc2c(-c3cccc4c3sc3ccccc34)cccc12 + COc1cccc2cc(-c3nc([C@H]4CC[C@H](C(=O)O)CC4)n4ncnc(N)c34)[nH]c12 [OSI-027] (partner 0.5 µM) , please. 0.648

---

Tested on: UMC-11
PROTOCOL DESCRIPTION: relative viability (nuclei count vs DMSO), 5 days (fraction); higher = more cells survive
CONDITION SET: first compound 0.253 µM
I'd be grateful if you could share measured relative viability for these entries.

compound="COc1nc(C)cnc1NS(=O)(=O)c1cccnc1-c1ccc(-c2nnco2)cc1 [Zibotentan] + C[C@]1(O)C[C@@H](c2nc(-c3ccc4ccc(-c5ccccc5)nc4c3)c3c(N)nccn32)C1 [Linsitinib] (partner 1 µM)" observed_value=0.944
compound="O=c1cc(-c2cccc3c2Sc2ccccc2S3)oc(N2CCOCC2)c1 + CS(=O)(=O)CCNCc1ccc(-c2ccc3ncnc(Nc4ccc(OCc5cccc(F)c5)c(Cl)c4)c3c2)o1 [Lapatinib] (partner 2 µM)" observed_value=1.28
compound="COc1nc(C)cnc1NS(=O)(=O)c1cccnc1-c1ccc(-c2nnco2)cc1 [Zibotentan] + C[C@@H](Oc1cc(-c2cnn(C3CCNCC3)c2)cnc1N)c1c(Cl)ccc(F)c1Cl [Crizotinib] (partner 1 µM)" observed_value=0.64

We next turn to a different compound, shown below.
Tell me the measured relative viability of O=c1cc(-c2cccc3c2Sc2ccccc2S3)oc(N2CCOCC2)c1 + Cc1nc(NC(=O)N2CCC[C@H]2C(N)=O)sc1-c1ccnc(C(C)(C)C(F)(F)F)c1 [Alpelisib] (partner 2 µM) , please. 1.35

---

Test system: SK-MES-1
PROTOCOL DESCRIPTION: relative viability (nuclei count vs DMSO), 5 days (fraction); higher = more cells survive
CONDITION SET: first compound 2.53 µM
MEASUREMENT KIND: relative viability

Sample records with relative viability:
molecule="COc1nc(C)cnc1NS(=O)(=O)c1cccnc1-c1ccc(-c2nnco2)cc1 [Zibotentan] + O=C(CCCCCCC(=O)Nc1ccccc1)NO [Vorinostat] (partner 1 µM)" observed_value=1.12
molecule="O=c1cc(-c2cccc3c2Sc2ccccc2S3)oc(N2CCOCC2)c1 + Cc1nc(NC(=O)N2CCC[C@H]2C(N)=O)sc1-c1ccnc(C(C)(C)C(F)(F)F)c1 [Alpelisib] (partner 2 µM)" observed_value=0.824
molecule="COc1nc(C)cnc1NS(=O)(=O)c1cccnc1-c1ccc(-c2nnco2)cc1 [Zibotentan] + C[C@@H](Oc1cc(-c2cnn(C3CCNCC3)c2)cnc1N)c1c(Cl)ccc(F)c1Cl [Crizotinib] (partner 1 µM)" observed_value=0.932

# map each molecule to its relative viability
1. O=c1cc(-c2cccc3c2Sc2ccccc2S3)oc(N2CCOCC2)c1 + CCNC(=O)c1noc(-c2cc(C(C)C)c(O)cc2O)c1-c1ccc(CN2CCOCC2)cc1 [Luminespib] (partner 0.01 µM)
2. O=c1cc(-c2cccc3c2Sc2ccccc2S3)oc(N2CCOCC2)c1 + CC(=O)c1c(C)c2cnc(Nc3ccc(N4CCNCC4)cn3)nc2n(C2CCCC2)c1=O [Palbociclib] (partner 0.5 µM)

[0.522, 0.294]

# map each molecule to its relative viability
1. O=c1cc(-c2cccc3c2Sc2ccccc2S3)oc(N2CCOCC2)c1 + CC1(C)CCC(c2ccc(Cl)cc2)=C(CN2CCN(c3ccc(C(=O)NS(=O)(=O)c4ccc(N[C@H](CCN5CCOCC5)CSc5ccccc5)c(S(=O)(=O)C(F)(F)F)c4)cc3)CC2)C1 [Navitoclax] (partner 0.5 µM)
2. COc1nc(C)cnc1NS(=O)(=O)c1cccnc1-c1ccc(-c2nnco2)cc1 [Zibotentan] + Cc1nc(Nc2ncc(C(=O)Nc3c(C)cccc3Cl)s2)cc(N2CCN(CCO)CC2)n1 [Dasatinib] (partner 0.075 µM)
3. COc1nc(C)cnc1NS(=O)(=O)c1cccnc1-c1ccc(-c2nnco2)cc1 [Zibotentan] + Nc1ncn([C@H]2C[C@H](O)[C@@H](CO)O2)c(=O)n1 [Decitabine] (partner 2 µM)
4. O=c1cc(-c2cccc3c2Sc2ccccc2S3)oc(N2CCOCC2)c1 + O=C(c1cc(Cc2n[nH]c(=O)c3ccccc23)ccc1F)N1CCN(C(=O)C2CC2)CC1 [Olaparib] (partner 8 µM)

1.17
0.363
0.365
0.705

# map each molecule to its relative viability
1. COc1nc(C)cnc1NS(=O)(=O)c1cccnc1-c1ccc(-c2nnco2)cc1 [Zibotentan] + COc1cc2c(Oc3ccc(NC(=O)C4(C(=O)Nc5ccc(F)cc5)CC4)cc3F)ccnc2cc1OCCCN1CCOCC1 [Foretinib] (partner 0.25 µM)
2. O=c1cc(-c2cccc3c2Sc2ccccc2S3)oc(N2CCOCC2)c1 + COc1cccc2cc(-c3nc([C@H]4CC[C@H](C(=O)O)CC4)n4ncnc(N)c34)[nH]c12 [OSI-027] (partner 0.5 µM)
3. O=c1cc(-c2cccc3c2Sc2ccccc2S3)oc(N2CCOCC2)c1 + O=C(CCCCCCC(=O)Nc1ccccc1)NO [Vorinostat] (partner 1 µM)
4. O=c1cc(-c2cccc3c2Sc2ccccc2S3)oc(N2CCOCC2)c1 + CS(=O)(=O)CCNCc1ccc(-c2ccc3ncnc(Nc4ccc(OCc5cccc(F)c5)c(Cl)c4)c3c2)o1 [Lapatinib] (partner 2 µM)

1.02
0.521
0.975
0.483
